Molecular target: T1, huNav1.7α + β1 (HEKa/β1) (human, UniProt Q15858 1-1988; Q07699 19-218)
T1 construct: also called HEKa/β1 huNav1.7α
Assay: binding FACS, HEKa/β1 cells
Procedure: Binding of the ISVDs to cell-expressed Nav1.7α was detected via murine anti-Flag (Sigma, catalog #F1804). Briefly, cells were resuspended in FACS buffer (PBS, 10% FBS, NaN₃) and transferred to a 96-well V-bottom plate at 1×10^5 cells/well. Purified FLAG3-tagged ISVD was diluted in FACS buffer and added to the cells for 30 minutes at 4° C. […] Prior to the read-out, the samples were resuspended in 1 μg/mL propidium iodide (Sigma, catalog #P4170) to exclude dead cells. […]
Would you mind telling me the reported EC50 of each entry?
Numbers only, in nM.

These recorded examples may help you get a feel for the data.
binder: F010301579 (VHH, R27K vs F0103362B08 (Kabat)) VHH: EVQLVESGGGLVQAGGSLRLSCAASVKPFSTSAMGWFRQAPEKEREAVAGILWNGIVTYYADSVKGRFTISRDNAKNEVYLQMNKLKPEDTAVYYCALDRDYGGRSFSAYEYEYWGQGTLVTVSS
unit-annotation: nM
EC50: 36

binder: F010301580 (VHH, R27T vs F0103362B08 (Kabat)) VHH: EVQLVESGGGLVQAGGSLRLSCAASVTPFSTSAMGWFRQAPEKEREAVAGILWNGIVTYYADSVKGRFTISRDNAKNEVYLQMNKLKPEDTAVYYCALDRDYGGRSFSAYEYEYWGQGTLVTVSS
unit-annotation: nM
EC50: 35

binder: F010301591 (VHH, G99K vs F0103362B08 (Kabat)) VHH: EVQLVESGGGLVQAGGSLRLSCAASVRPFSTSAMGWFRQAPEKEREAVAGILWNGIVTYYADSVKGRFTISRDNAKNEVYLQMNKLKPEDTAVYYCALDRDYKGRSFSAYEYEYWGQGTLVTVSS
unit-annotation: nM
EC50: 43

Next, consider the following binder.
Data request, read-out EC50, for F010301574 (VHH, G35A vs F0103362B08 (Kabat)) VHH: EVQLVESGGGLVQAGGSLRLSCAASVRPFSTSAMAWFRQAPEKEREAVAGILWNGIVTYYADSVKGRFTISRDNAKNEVYLQMNKLKPEDTAVYYCALDRDYGGRSFSAYEYEYWGQGTLVTVSS
29
